Measured pIC50, listed per entry.
# Test system: Calu-1
# protocol-text: Antiproliferative activity against Calu1 cells
# Type: functional, cell-based
# study-conditions: Homo sapiens
Friendly reminder that pIC50 comes from taking -log10 of the concentration in mol/L.

// below: answered compounds
smi	pIC50
CN(CCc1c[nH]c2ccccc12)C(=O)c1ccc(Br)cc1	4.19
CN(CCc1c[nH]c2ccccc12)C(=O)c1ccc(Cl)cc1	4.11

Enquiry: Test system Calu-1; read-out pIC50; what value for CN(CCc1c[nH]c2ccccc12)C(=O)c1ccccc1F ?
Return: 3.84

Enquiry: Next up: COc1cccc(C(=O)N(C)CCc2c[nH]c3ccccc23)c1
Return: 3.86

Enquiry: Next up: Cc1ccc(C(=O)N(C)CCc2c[nH]c3ccccc23)cc1
Return: 3.99

###

# System: A549
# protocol-text: Antiproliferative activity against A549 cells
# Format: functional, cell-based
# study-conditions: Homo sapiens
property-measured: pIC50
Friendly reminder that pIC50 comes from taking -log10 of the concentration in mol/L.

smi	data-value
CN(CCc1c[nH]c2ccccc12)C(=O)c1ccc(-c2ccccc2)cc1	5.46
COc1cccc(C(=O)N(C)CCc2c[nH]c3ccccc23)c1	4.02
Cc1ccccc1C(=O)N(C)CCc1c[nH]c2ccccc12	3.96

Enquiry: Reported pIC50, compound CN(CCc1c[nH]c2ccccc12)C(=O)c1ccc(F)cc1 : ____
Return: 3.99

Enquiry: Next up: CN(CCc1c[nH]c2ccccc12)C(=O)c1ccccc1F
Return: 3.99

###

# study-system: Cyclin-dependent kinase 2/cyclin A (Homo sapiens)
# protocol-text: Inhibition of Cdk2/Cyclin A
Measured pIC50, listed per entry.
Friendly reminder that pIC50 comes from taking -log10 of the concentration in mol/L.

// below: answered compounds
smi	pIC50
CN(CCc1c[nH]c2ccccc12)C(=O)c1ccccc1Br	3.23
CN(CCc1c[nH]c2ccccc12)C(=O)c1ccccc1	2.82
CN(CCc1c[nH]c2ccccc12)C(=O)c1ccc(Cl)cc1	3.14
CN(CCc1c[nH]c2ccccc12)C(=O)c1ccccc1Cl	3.11
CN(CCc1c[nH]c2ccccc12)C(=O)c1ccc(F)cc1	3.07

Enquiry: Reported pIC50, compound COc1ccccc1C(=O)N(C)CCc1c[nH]c2ccccc12 : ____
Return: 3.07

Enquiry: Next up: CN(CCc1c[nH]c2ccccc12)C(=O)c1cccc(F)c1
Return: 3.12

Enquiry: Next up: CN(CCc1c[nH]c2ccccc12)C(=O)c1ccc(Br)cc1
Return: 3.24

###

Measured pIC50, listed per entry.
# System: PC-3
# protocol-text: Antiproliferative activity against PC3 cells
# Assay type: functional, cell-based
# study-conditions: Homo sapiens
Friendly reminder that pIC50 comes from taking -log10 of the concentration in mol/L.

Enquiry: Test system PC-3; read-out pIC50; what value for CN(CCc1c[nH]c2ccccc12)C(=O)c1ccc(F)cc1 ?
Return: 4.03

Enquiry: Next up: Cc1cccc(C(=O)N(C)CCc2c[nH]c3ccccc23)c1
Return: 4.09

###

Measured IC50, listed per entry.
# study-system: Cyclin-dependent kinase 4/cyclin D1 (Homo sapiens)
# Sequence (P11802 whole entry): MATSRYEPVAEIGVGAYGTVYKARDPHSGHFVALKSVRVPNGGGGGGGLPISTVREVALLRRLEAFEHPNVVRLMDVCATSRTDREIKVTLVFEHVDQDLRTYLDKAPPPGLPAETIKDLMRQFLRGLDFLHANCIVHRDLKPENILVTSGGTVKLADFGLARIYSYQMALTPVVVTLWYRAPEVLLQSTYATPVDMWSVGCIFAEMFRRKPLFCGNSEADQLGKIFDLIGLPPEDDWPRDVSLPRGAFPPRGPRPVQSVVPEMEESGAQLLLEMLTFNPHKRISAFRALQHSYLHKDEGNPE
# Sequence (P24385 whole entry, further chain): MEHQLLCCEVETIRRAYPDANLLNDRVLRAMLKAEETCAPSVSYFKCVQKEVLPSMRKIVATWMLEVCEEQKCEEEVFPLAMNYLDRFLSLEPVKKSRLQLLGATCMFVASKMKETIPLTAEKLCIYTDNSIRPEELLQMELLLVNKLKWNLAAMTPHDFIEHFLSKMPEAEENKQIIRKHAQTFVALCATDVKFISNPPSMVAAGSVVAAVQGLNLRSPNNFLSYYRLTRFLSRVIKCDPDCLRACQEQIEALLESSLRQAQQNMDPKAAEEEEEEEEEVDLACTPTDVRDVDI
# protocol-text: Inhibition of Cdk4/Cyclin D1
State just the number; it will be interpreted in µM.

// below: answered compounds
smi	study-system	IC50, µM
CN(CCc1c[nH]c2ccccc12)C(=O)c1cccc(F)c1	Cyclin-dependent kinase 4/cyclin D1 (Homo sapiens)	88
CN(CCc1c[nH]c2ccccc12)C(=O)c1ccc(-c2ccccc2)cc1	Cyclin-dependent kinase 4/cyclin D1 (Homo sapiens)	6.2
Cc1cccc(C(=O)N(C)CCc2c[nH]c3ccccc23)c1	Cyclin-dependent kinase 4/cyclin D1 (Homo sapiens)	78

Enquiry: Reported IC50, compound CN(CCc1c[nH]c2ccccc12)C(=O)c1ccc(Cl)cc1 : ____
Return: 38

Enquiry: Next up: Cc1ccc(C(=O)N(C)CCc2c[nH]c3ccccc23)cc1
Return: 63

###

# study-system: Cyclin-dependent kinase 4/cyclin D1 (Homo sapiens)
# protocol-text: Inhibition of Cdk4/Cyclin D1
Measured pIC50, listed per entry.
Friendly reminder that pIC50 comes from taking -log10 of the concentration in mol/L.

// below: answered compounds
smi	study-system	pIC50
CN(CCc1c[nH]c2ccccc12)C(=O)c1ccc(Br)cc1	Cyclin-dependent kinase 4/cyclin D1 (Homo sapiens)	4.43
CN(CCc1c[nH]c2ccccc12)C(=O)c1ccc(C(C)(C)C)cc1	Cyclin-dependent kinase 4/cyclin D1 (Homo sapiens)	4.31
CN(CCc1c[nH]c2ccccc12)C(=O)c1cccc(Br)c1	Cyclin-dependent kinase 4/cyclin D1 (Homo sapiens)	4.13
CN(CCc1c[nH]c2ccccc12)C(=O)c1ccccc1Cl	Cyclin-dependent kinase 4/cyclin D1 (Homo sapiens)	4.34
COc1cccc(C(=O)N(C)CCc2c[nH]c3ccccc23)c1	Cyclin-dependent kinase 4/cyclin D1 (Homo sapiens)	4.09

Enquiry: Reported pIC50, compound CN(CCc1c[nH]c2ccccc12)C(=O)c1ccccc1F : ____
Return: 3.99

###

# Tested on: Calu-1
# protocol-text: Antiproliferative activity against Calu1 cells
# Assay type: functional, cell-based
# study-conditions: Homo sapiens
property-measured: IC50 (µM)
State just the number; it will be interpreted in µM.

smi	units-text	IC50
CN(CCc1c[nH]c2ccccc12)C(=O)c1ccc(F)cc1	µM	141
CN(CCc1c[nH]c2ccccc12)C(=O)c1cccc(Br)c1	µM	144
CN(CCc1c[nH]c2ccccc12)C(=O)c1cccc(Cl)c1	µM	123
Cc1ccccc1C(=O)N(C)CCc1c[nH]c2ccccc12	µM	141
CN(CCc1c[nH]c2ccccc12)C(=O)c1ccccc1Br	µM	122

Enquiry: Reported IC50, compound CN(CCc1c[nH]c2ccccc12)C(=O)c1ccccc1 : ____
Return: 104

Enquiry: Next up: CN(CCc1c[nH]c2ccccc12)C(=O)c1cccc(F)c1
Return: 136

Enquiry: Next up: CN(CCc1c[nH]c2ccccc12)C(=O)c1ccc(C(C)(C)C)cc1
Return: 52

Enquiry: Next up: CN(CCc1c[nH]c2ccccc12)C(=O)c1ccc(-c2ccccc2)cc1
Return: 11.5

###

# study-system: Cyclin-dependent kinase 4/cyclin D1 (Homo sapiens)
# protocol-text: Inhibition of Cdk4/Cyclin D1
Measured pIC50, listed per entry.
Friendly reminder that pIC50 comes from taking -log10 of the concentration in mol/L.

// below: answered molecules
smi	property-measured	data-value
CN(CCc1c[nH]c2ccccc12)C(=O)c1ccccc1	pIC50	4.06
CN(CCc1c[nH]c2ccccc12)C(=O)c1ccc(F)cc1	pIC50	4.23
COc1ccccc1C(=O)N(C)CCc1c[nH]c2ccccc12	pIC50	4.10
Cc1ccccc1C(=O)N(C)CCc1c[nH]c2ccccc12	pIC50	3.95
CN(CCc1c[nH]c2ccccc12)C(=O)c1cccc(Cl)c1	pIC50	3.96

Enquiry: Test system Cyclin-dependent kinase 4/cyclin D1 (Homo sapiens); read-out pIC50; what value for CN(CCc1c[nH]c2ccccc12)C(=O)c1ccccc1Br ?
Return: 4.02

###

Measured IC50, listed per entry.
# Test system: A549
# protocol-text: Antiproliferative activity against A549 cells
# Type: functional, cell-based
# study-conditions: Homo sapiens
State just the number; it will be interpreted in µM.

// below: answered compounds
smi	IC50 (µM)
CN(CCc1c[nH]c2ccccc12)C(=O)c1ccc(Cl)cc1	27
CN(CCc1c[nH]c2ccccc12)C(=O)c1cccc(F)c1	106
CN(CCc1c[nH]c2ccccc12)C(=O)c1ccccc1	95
CN(CCc1c[nH]c2ccccc12)C(=O)c1cccc(Cl)c1	95

Enquiry: Test system A549; read-out IC50; what value for Cc1ccc(C(=O)N(C)CCc2c[nH]c3ccccc23)cc1 ?
Return: 92

Enquiry: Next up: CN(CCc1c[nH]c2ccccc12)C(=O)c1ccc(C(C)(C)C)cc1
Return: 12

Enquiry: Next up: COc1ccccc1C(=O)N(C)CCc1c[nH]c2ccccc12
Return: 103

Enquiry: Next up: CN(CCc1c[nH]c2ccccc12)C(=O)c1ccc(Br)cc1
Return: 55

Enquiry: Next up: CN(CCc1c[nH]c2ccccc12)C(=O)c1ccccc1Cl
Return: 96

Enquiry: Next up: CN(CCc1c[nH]c2ccccc12)C(=O)c1ccccc1Br
Return: 95

Enquiry: Next up: CN(CCc1c[nH]c2ccccc12)C(=O)c1cccc(Br)c1
Return: 91

Enquiry: Next up: Cc1cccc(C(=O)N(C)CCc2c[nH]c3ccccc23)c1
Return: 96

###

# study-system: Cyclin-dependent kinase 2/cyclin A (Homo sapiens, UniProt P24941)
# protocol-text: Inhibition of Cdk2/Cyclin A
Cut-off 800 µM on IC50: below means Satisfied, at or above means Not satisfied.

Known results for molecules:
smi	label
CN(CCc1c[nH]c2ccccc12)C(=O)c1cccc(Br)c1	Satisfied
CN(CCc1c[nH]c2ccccc12)C(=O)c1ccc(C(C)(C)C)cc1	Satisfied
Cc1cccc(C(=O)N(C)CCc2c[nH]c3ccccc23)c1	Not satisfied
Cc1ccccc1C(=O)N(C)CCc1c[nH]c2ccccc12	Not satisfied
CN(CCc1c[nH]c2ccccc12)C(=O)c1ccccc1F	Not satisfied

Enquiry: Does COc1cccc(C(=O)N(C)CCc2c[nH]c3ccccc23)c1 have IC50 strictly under 800 µM?
Return: Not satisfied

Enquiry: Next up: CN(CCc1c[nH]c2ccccc12)C(=O)c1cccc(Cl)c1
Return: Not satisfied

Enquiry: Next up: CN(CCc1c[nH]c2ccccc12)C(=O)c1ccc(-c2ccccc2)cc1
Return: Satisfied
